target: T1, BSA-conjugated Aβ heptapeptide FFAEDVC (C-terminal Cys coupled to NSMP-activated BSA); experiment: ELISA;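 also: ELISA of antibody at 10 or 2 µg/ml binding plate-coated BSA–peptide conjugates, detected with HRP anti-human Ig and TMB colour, mock-treated BSA without peptide as negative control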
T1 construct: also called Peptide 19-24
T1 peptide: FFAEDVC
Peptide-ratio 19-24/2-7 listing for selected binders.
Answer field: number only, no words.

# annotated cases, reported Peptide-ratio 19-24/2-7 shown
[
  {
    "BINDER": "MS-Roche #7.9.H4 Fab (Fab, V domains shown, assembled) VH: QVQLVESGGGLVQPGGSLRLSCAASGFTFSSYAMSWVRQAPGKGLEWVSAINAVGMKKFYADSVKGRFTISRDNSKNTLYLQMNSLRAEDTAVYYCARGKGNTHKPYGYVRYFDVWGQGTLVTVSS VL: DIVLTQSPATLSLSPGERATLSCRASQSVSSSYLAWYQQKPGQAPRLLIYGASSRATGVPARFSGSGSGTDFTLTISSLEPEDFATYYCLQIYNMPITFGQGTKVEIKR",
    "OBSERVED MEASUREMENT": 0.22
  },
  {
    "BINDER": "MS-Roche #7.2.H5 Fab (Fab, V domains shown) VH: QVQLVESGGGLVQPGGSLRLSCAASGFTFSSYAMSWVRQAPGKGLEWVSAINATGRSKYYADSVKGRFTISRDNSKNTLYLQMNSLRAEDTAVYYCARGKGNTHKPYGYVRYFDVWGQGTLVTVSS VL: DIVLTQSPATLSLSPGERATLSCRASQSVSSSYLAWYQQKPGQAPRLLIYGASSRATGVPARFSGSGSGTDFTLTISSLEPEDFATYYCQQIYSFPHTFGQGTKVEIKR",
    "OBSERVED MEASUREMENT": 0.5
  }
]

Now for another entry.
What does the data say about its Peptide-ratio 19-24/2-7? Entry: MS-Roche #7.2.H2 Fab (Fab, V domains shown) VH: QVQLVESGGGLVQPGGSLRLSCAASGFTFSSYAMSWVRQAPGKGLEWVSAINGTGMKKYYADSVKGRFTISRDNSKNTLYLQMNSLRAEDTAVYYCARGKGNTHKPYGYVRYFDVWGQGTLVTVSS VL: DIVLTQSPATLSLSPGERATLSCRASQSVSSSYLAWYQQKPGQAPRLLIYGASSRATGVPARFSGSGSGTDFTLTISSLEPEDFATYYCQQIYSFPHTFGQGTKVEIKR
0.63
